Test: Clinical test in humans, single 30-min i.v. infusion, plasma PK
Format: in vivo
Settings: human, in vivo, iv, 150 ug/kg, single 30-min i.v. infusion 150 μg/kg, GM, read-out: AUC0-t
Ends that are not written are not given here.
QUANTITY: AUC(0-t) (ng·h/mL)
Write down the numeric answer in ng·h/mL and omit the unit.

Query block: Please report the recorded AUC(0-t) for AMVSEFLKQAWFIENEEQEYVQTLKSSKGGPGSAVSPYPTFNPSSDV-NH2 [Peptide 1] .
Result block: 1370

----------
Experiment: Clinical test in humans, three 30-min i.v. infusions 8 hours apart, plasma PK
Type: in vivo
Settings: human, in vivo, iv, 140 ug/kg, three 30-min i.v. infusions 8 h apart, 140 μg/kg each, mean, read-out: AUC0-t1
Ends that are not written are not given here.
QUANTITY: AUC (ng·h/mL)
Give just the number in ng·h/mL; leave the unit off.

Query block: Which AUC is reported for this substance? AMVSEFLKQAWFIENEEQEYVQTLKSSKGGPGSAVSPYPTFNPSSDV-NH2 [Peptide 1]
Result block: 1690
